Biological target: DGKalpha (Homo sapiens)
Sequence (P23743 whole entry, species assumed): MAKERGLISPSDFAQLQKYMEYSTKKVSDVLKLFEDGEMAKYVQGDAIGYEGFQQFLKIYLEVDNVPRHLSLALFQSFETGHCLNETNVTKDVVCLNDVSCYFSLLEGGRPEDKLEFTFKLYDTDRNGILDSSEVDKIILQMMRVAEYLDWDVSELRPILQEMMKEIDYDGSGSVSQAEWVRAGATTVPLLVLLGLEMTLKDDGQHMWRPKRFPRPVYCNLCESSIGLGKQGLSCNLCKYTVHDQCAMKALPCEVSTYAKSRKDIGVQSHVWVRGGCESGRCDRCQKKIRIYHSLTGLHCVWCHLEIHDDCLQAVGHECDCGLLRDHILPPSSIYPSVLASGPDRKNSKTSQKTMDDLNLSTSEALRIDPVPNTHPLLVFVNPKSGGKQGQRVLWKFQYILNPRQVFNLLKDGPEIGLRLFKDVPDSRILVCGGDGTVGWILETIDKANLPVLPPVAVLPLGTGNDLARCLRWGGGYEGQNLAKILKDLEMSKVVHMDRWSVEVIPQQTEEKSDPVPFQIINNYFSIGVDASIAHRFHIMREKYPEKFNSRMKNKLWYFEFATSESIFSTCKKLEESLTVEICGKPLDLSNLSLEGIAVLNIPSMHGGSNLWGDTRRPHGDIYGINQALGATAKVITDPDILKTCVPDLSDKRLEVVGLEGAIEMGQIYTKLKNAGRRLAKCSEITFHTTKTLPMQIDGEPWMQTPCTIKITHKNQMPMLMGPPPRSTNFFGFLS
Experiment: In vitro DGK inhibition assay (ADP Glo) run by Reaction Biology Corp., DGKalpha
Type: biochemical
Parameters: purchased Reaction Biology Corp. (assay service)
Details: 2 nM kinase, 500 uM DLG, 10-dose duplicate

{"columns": ["structure.as.smiles", "IC50, nM"],
 "data": [
  ["CC(C)(c1nc(-c2cc3c(cc2F)S(=O)(=O)C[C@H](N)C(=O)N3Cc2ccc(Oc3ccccc3)cc2)no1)S(C)(=O)=O", 7.8],
  ["CC(C)(c1nnc(-c2cc3c(cc2F)S(=O)(=O)C[C@H](N)C(=O)N3Cc2ccc(-c3ccc(C(F)(F)F)cc3)cc2)o1)S(C)(=O)=O", 7.1],
  ["CC(C)(c1nnc(-c2ccc3c(c2)N(Cc2ccc(-c4ccc(C(F)(F)F)cc4)cc2)C(=O)[C@@H](N)CS3(=O)=O)o1)S(C)(=O)=O", 67.7]
]}

Values were extracted from patent US20260035364A1.
